Origin of measurements: patent US20120225061A1

As shown below, each of these molecules has a reported pIC50 value.
Molecular target: Pim2 kinase (Homo sapiens, UniProt Q9P1W9)
Sequence (Q9P1W9 whole entry): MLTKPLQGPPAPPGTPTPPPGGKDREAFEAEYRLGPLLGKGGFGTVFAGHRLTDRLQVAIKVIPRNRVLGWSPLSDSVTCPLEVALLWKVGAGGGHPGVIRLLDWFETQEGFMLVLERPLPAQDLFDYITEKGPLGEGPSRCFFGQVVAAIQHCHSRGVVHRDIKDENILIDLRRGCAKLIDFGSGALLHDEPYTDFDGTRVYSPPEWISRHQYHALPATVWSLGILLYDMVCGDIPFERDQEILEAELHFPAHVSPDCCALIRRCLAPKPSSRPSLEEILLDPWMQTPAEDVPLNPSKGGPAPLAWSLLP
Experiment: Pim2 AlphaScreen assay (high ATP)
pIC50: −log10 of the molar value.
measured-attribute: pIC50

>  <molecule-smiles>
CC(C)OCc1cc(F)c(-c2nc(C(=O)Nc3cnccc3[C@H]3C[C@@H](N)[C@](C)(O)[C@@H](C)C3)ccc2F)c(F)c1

>  <observed-value>
8.62

$$$$
>  <molecule-smiles>
C[C@@H]1C[C@H](c2ccncc2NC(=O)c2ccc(F)c(-c3c(F)cc(CN4CCCC4=O)cc3F)n2)C[C@H](O)[C@@]1(C)O

>  <observed-value>
5.80

$$$$
>  <molecule-smiles>
C[C@H]1C[C@@H](c2ccncc2NC(=O)c2nc(-c3c(F)cccc3F)sc2N)C[C@@H](N)[C@]1(C)O

>  <observed-value>
8.52

$$$$

###

Target: Pim3 kinase (Homo sapiens)
Test: KinaseGlo Pim3 ATP depletion assay
Format: biochemical
Settings: Table 4, 40 μM ATP, 100 μM BAD peptide
Overview of recorded IC50 for various compounds

>  <compound>
C[C@H]1C[C@@H](c2ccncc2NC(=O)c2ccc(F)c(-c3c(F)ccc(C#N)c3F)n2)C[C@@H](O)[C@]1(C)O [Example 46]

>  <unit-descriptor>
nM

>  <IC50>
3.5

$$$$
>  <compound>
C[C@H]1C[C@@H](c2ccncc2NC(=O)c2cccc(-c3c(F)cccc3F)n2)C[C@@H](O)[C@]1(C)O [Example 58]

>  <unit-descriptor>
nM

>  <IC50>
2.6

$$$$
>  <compound>
C[C@H]1C[C@@H](c2ccncc2NC(=O)c2nc(-c3ccccc3)cnc2N)C[C@@H](O)[C@]1(C)O [Example 37]

>  <unit-descriptor>
nM

>  <IC50>
2.5

$$$$
